Assay: Pharmacokinetics in male Wistar rats after an oral dose
Format: in vivo
Details: rat, plasma, oral dose of ~20 mg/kg, solution in PEG 400/Ethanol/Water (40/15/45), mean, read-out: tmax (time to reach the highest plasma concentration)
OBSERVABLE: Tmax (h)
Numbers only, in h.

Kindly note the recorded Tmax for Cl.O=C(c1ccccc1)N1CCCC(CCCN2CCC(O)(c3ccccc3)CC2)(c2ccc(Cl)c(Cl)c2)C1 (stereo not drawn) [Compound 20-2] , which is 1.3

Kindly note the recorded Tmax for CC(=O)N(C)C1(c2ccccc2)CCN(CCC[C@]2(c3ccc(Cl)c(Cl)c3)CCCN(C(=O)c3ccccc3)C2)CC1 [SR 142801, reference compound] , which is 1.8

The record that follows has no Tmax shown yet.
Kindly note the recorded Tmax for Cl.O=C(c1ccccc1)N1CCCC(CCCN2CCC(c3ccccc3)CC2)(c2ccc(Cl)c(Cl)c2)C1 (stereo not drawn) [Compound 20-3] , which is 1.8
